Parameter: binding affinity ratio (IC50 standard peptide / IC50 test peptide). Scope: all listed entries.
measurement target: T1, HLA-DR4w4 (DRB1*0401) (human)
T1 chain 1: not shown
T1 chain 2: not shown
assay explanation: competition vs 125I probe peptide, purified HLA-DR, gel filtration
API doc: respond with a numeric literal and nothing else, no unit.

Check out these entries, answers already filled in.
PQTFQVAHLHAPTGS (modifications not checked) [HCV peptide … (HCV NS3 1225)] : 0.0053
ARLIVFPDLGVRVCE (modifications not checked) [HCV peptide … (HCV NS5 2610)] : 0.0017
RQEMGGNITRVESEN (modifications not checked) [HCV peptide … (HCV NS5 2243)] : 0.0003

Let us move to another entry and its binding affinity ratio (IC50 standard peptide / IC50 test peptide).
Requested read-out: binding affinity ratio (IC50 standard peptide / IC50 test peptide). Entry: GTVLDQAETAGARLV (modifications not checked) [HCV peptide … (HCV NS3 1335)]
0.017
